target: KIAA1967 DBIRD complex subunit KIAA1967 (Homo sapiens)
Construct: isoTOP-ABPP experiments performed in cell lysates (in vitro); endogenous in cells; host or cells: soluble proteome of human cancer cell lines (MDA-MB-231; Ramos and Jurkat also prepared)
Sequence (Q8N163 whole entry, one chain of several): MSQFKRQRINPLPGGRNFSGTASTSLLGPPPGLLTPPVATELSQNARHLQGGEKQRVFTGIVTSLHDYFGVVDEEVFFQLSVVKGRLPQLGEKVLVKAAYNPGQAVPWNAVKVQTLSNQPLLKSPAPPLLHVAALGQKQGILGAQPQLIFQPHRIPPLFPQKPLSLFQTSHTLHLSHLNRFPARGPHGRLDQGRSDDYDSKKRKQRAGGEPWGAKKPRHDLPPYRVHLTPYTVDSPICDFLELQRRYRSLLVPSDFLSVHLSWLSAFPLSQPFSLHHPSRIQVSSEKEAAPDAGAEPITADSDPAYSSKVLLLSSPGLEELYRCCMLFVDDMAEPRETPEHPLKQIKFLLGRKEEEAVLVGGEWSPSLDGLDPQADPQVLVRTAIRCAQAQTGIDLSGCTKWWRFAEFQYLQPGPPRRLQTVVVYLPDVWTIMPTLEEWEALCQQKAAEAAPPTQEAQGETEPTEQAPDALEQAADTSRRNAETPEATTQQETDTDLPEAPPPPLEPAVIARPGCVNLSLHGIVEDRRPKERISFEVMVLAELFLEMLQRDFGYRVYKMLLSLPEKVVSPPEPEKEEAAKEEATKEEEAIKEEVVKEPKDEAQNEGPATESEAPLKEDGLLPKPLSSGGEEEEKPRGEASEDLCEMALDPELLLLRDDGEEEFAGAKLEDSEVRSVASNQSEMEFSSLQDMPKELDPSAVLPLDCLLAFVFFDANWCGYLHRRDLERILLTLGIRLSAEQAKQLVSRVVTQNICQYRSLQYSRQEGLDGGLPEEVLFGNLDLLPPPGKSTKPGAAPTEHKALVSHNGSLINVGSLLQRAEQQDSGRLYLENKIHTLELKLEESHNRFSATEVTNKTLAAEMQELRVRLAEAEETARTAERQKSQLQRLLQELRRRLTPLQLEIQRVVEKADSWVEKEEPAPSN
assay notes: competitive isoTOP-ABPP
Format: binding
test settings: 50 uM_231_sol_in vitro
Give measured isoTOP-ABPP ratio, lysine Q8N163_K97 for each item. Keep answers brief.
One number for each entry.

Use these answered entries as a reference point.
QUERY: Find the measured isoTOP-ABPP ratio, lysine Q8N163_K97 of N#Cc1ccc(C(=O)Oc2ccc([N+](=O)[O-])cc2[N+](=O)[O-])cc1 [fragment 44, 2,4-Dinitrophenyl 4-cyanobenzoate] and report it.
RESULT: 0.8

QUERY: Find the measured isoTOP-ABPP ratio, lysine Q8N163_K97 of NC(=O)c1cc(C(F)(F)F)cc(C(F)(F)F)c1 [fragment 51, reference compound] and report it.
RESULT: 0.8

QUERY: Find the measured isoTOP-ABPP ratio, lysine Q8N163_K97 of `O=C(ON1C(=O)CCC1=O)c1cc(C(F)(F)F)cc(C(F)(F)F)c1` and report it.
RESULT: 0.9

Would you mind listing isoTOP-ABPP ratio, lysine Q8N163_K97 for each of the following compounds?
1. O=C(CCc1ccc2c(c1)OCO2)Oc1ccc([N+](=O)[O-])cc1[N+](=O)[O-]
2. O=C(Oc1c(F)c(F)cc(F)c1F)c1cc(C(F)(F)F)cc(C(F)(F)F)c1
3. O=C(Oc1c(F)c(F)c(C(F)(F)F)c(F)c1F)c1cc(C(F)(F)F)cc(C(F)(F)F)c1

RESULT:
1: 0.8; 2: 0.6; 3: 0.9

----------
Give measured isoTOP-ABPP ratio, lysine Q9H3P7_K117 for each item. Keep answers brief.
target: ACBD3 Golgi resident protein GCP60 (Homo sapiens)
Construct: isoTOP-ABPP experiments performed in cell lysates (in vitro); endogenous in cells; host or cells: soluble proteome of human cancer cell lines (MDA-MB-231; Ramos and Jurkat also prepared)
Sequence (Q9H3P7 1-528): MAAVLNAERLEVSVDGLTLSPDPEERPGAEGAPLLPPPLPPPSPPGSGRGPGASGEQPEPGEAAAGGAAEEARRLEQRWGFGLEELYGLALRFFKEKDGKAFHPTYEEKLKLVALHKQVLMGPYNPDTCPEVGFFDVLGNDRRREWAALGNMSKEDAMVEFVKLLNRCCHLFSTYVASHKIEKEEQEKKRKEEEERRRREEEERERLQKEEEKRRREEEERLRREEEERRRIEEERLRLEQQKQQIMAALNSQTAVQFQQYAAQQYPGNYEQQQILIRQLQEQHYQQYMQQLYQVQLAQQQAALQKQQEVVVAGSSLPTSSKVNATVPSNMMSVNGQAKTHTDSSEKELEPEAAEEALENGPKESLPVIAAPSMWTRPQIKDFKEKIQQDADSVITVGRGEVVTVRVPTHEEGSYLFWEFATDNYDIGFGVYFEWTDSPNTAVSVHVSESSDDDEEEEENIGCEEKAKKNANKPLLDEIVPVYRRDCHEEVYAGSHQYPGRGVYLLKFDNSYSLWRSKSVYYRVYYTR
assay notes: competitive isoTOP-ABPP
Type: binding
test settings: 50 uM_231_sol_in vitro
One number for each entry.

Use these answered entries as a reference point.
QUERY: Find the measured isoTOP-ABPP ratio, lysine Q9H3P7_K117 of `O=C(Oc1c(F)c(F)c(C(F)(F)F)c(F)c1F)c1cc(C(F)(F)F)cc(C(F)(F)F)c1` and report it.
RESULT: 1.0

QUERY: Find the measured isoTOP-ABPP ratio, lysine Q9H3P7_K117 of `O=C(CCc1ccc2c(c1)OCO2)Oc1ccc([N+](=O)[O-])cc1[N+](=O)[O-]` and report it.
RESULT: 1.1

QUERY: Find the measured isoTOP-ABPP ratio, lysine Q9H3P7_K117 of `O=C(ON1C(=O)CCC1=O)c1cc(C(F)(F)F)cc(C(F)(F)F)c1` and report it.
RESULT: 7.7

QUERY: Find the measured isoTOP-ABPP ratio, lysine Q9H3P7_K117 of NC(=O)c1cc(C(F)(F)F)cc(C(F)(F)F)c1 [fragment 51, reference compound] and report it.
RESULT: 0.9

QUERY: Find the measured isoTOP-ABPP ratio, lysine Q9H3P7_K117 of N#Cc1ccc(C(=O)Oc2ccc([N+](=O)[O-])cc2[N+](=O)[O-])cc1 [fragment 44, 2,4-Dinitrophenyl 4-cyanobenzoate] and report it.
RESULT: 0.8

// below: isoTOP-ABPP ratio, lysine Q9H3P7_K117 requested for another compound
QUERY: Find the measured isoTOP-ABPP ratio, lysine Q9H3P7_K117 of `O=C(Oc1c(F)c(F)cc(F)c1F)c1cc(C(F)(F)F)cc(C(F)(F)F)c1` and report it.
RESULT: 0.9
